Biological target: Cyclin-dependent kinase 2 (Homo sapiens, UniProt P24941)
pIC50: −log10 of the molar value.

Structure Notation	Target Or Test System	pIC50
COc1ccc(N(C(=O)Oc2c(C)cccc2C)c2ccnc(Nc3cc(OC)c(OCCCN4CCN(C)CC4)c(OC)c3)n2)c(OC)c1	Cyclin-dependent kinase 2 (Homo sapiens, UniProt P24941)	< 4.40

* * *

Experiment: AUC (0-infinity) in Sprague-Dawley rat at 1 mg/kg, iv
Assay type: ADME, organism-based
Set-up: time infinity, dose 1 mg/kg, route intravenous
Settings: plasma

Structure Notation	AUC(0-inf) / ng·h/mL
COc1ccc(N(C(=O)Oc2c(C)cccc2C)c2ccnc(Nc3cc(OC)c(OCCCN4CCN(C)CC4)c(OC)c3)n2)c(OC)c1	568
